Reported values of melting point for individual entries

// solved cases for melting point follow
• CNC(=O)c1cccc(-c2ccn3nc(-c4ccc(C#N)cc4)cc3c2)c1 = 252 to 254 °C
• CNC(=O)c1ccc(-c2ccn3nc(-c4ccc(F)cc4)cc3c2)cc1 = 264 to 266 °C

Measured melting point, `NC(=O)c1cccc(-c2ccn3nc(-c4ccc(Cl)cc4)cc3c2)c1` : 283 to 285 °C

The compound `CNC(=O)c1cccc(-c2ccn3nc(-c4cccc(F)c4)cc3c2)c1` showed melting point equal to 204 to 206 °C

`CNC(=O)c1cccc(-c2ccn3nc(-c4cc(F)cc(F)c4)cc3c2)c1` has a reported melting point of 230 to 232 °C

Measured melting point, `CNC(=O)c1cccc(-c2ccn3nc(-c4ccc(OC)cc4)cc3c2)c1` : 211 to 213 °C

According to the records, this compound `CNC(=O)c1cccc(-c2ccn3nc(-c4ccc(C)cc4)cc3c2)c1` displays melting point of 204 to 206 °C

The reported melting point of the compound `CNC(=O)c1cc(-c2ccn3nc(-c4ccc(F)cc4)cc3c2)ccc1Cl` was 243 to 245 °C

Looking up `CNC(=O)c1cccc(-c2ccn3nc(-c4ccccc4F)cc3c2)c1` , I see its melting point listed as 195 to 197 °C

For reference, reported melting point for `COC(=O)c1cccc(-c2ccn3nc(-c4ccc(F)cc4)cc3c2)c1` stands at 162 to 164 °C

Sample `CNC(=O)c1cccc(-c2ccn3nc(-c4ccc(Cl)cc4)cc3c2)c1` ; melting point observed: 234 to 236 °C

For this compound ( O=C(c1cccc(-c2ccn3nc(-c4ccc(F)cc4)cc3c2)c1)N1CCC(O)C1 (stereo not drawn) ), measured melting point is 173 to 175 °C

Looking up `CNC(=O)c1ccc(C)c(-c2ccn3nc(-c4ccc(F)cc4)cc3c2)c1` , I found its melting point recorded as 185 to 187 °C

# compound `CNC(=O)c1cccc(-c2ccn3nc(-c4ccccc4C)cc3c2)c1` ; its melting point = 129 to 131 °C

Record `CNC(=O)c1cccc(-c2ccn3nc(-c4ccc(F)cc4)c(Cl)c3c2)c1` , field melting point: 221 to 223 °C

---

TEST_SYSTEM: murine Nurr1 receptor (Mus musculus)
Construct: a cell line (N2A) endogenously expressing the murine Nurr1 receptor; host or cells: Neuro-2A (N2A) mouse neuroblastoma cells stably transfected with 8NBRE-luciferase
Sequence (Q06219 whole entry): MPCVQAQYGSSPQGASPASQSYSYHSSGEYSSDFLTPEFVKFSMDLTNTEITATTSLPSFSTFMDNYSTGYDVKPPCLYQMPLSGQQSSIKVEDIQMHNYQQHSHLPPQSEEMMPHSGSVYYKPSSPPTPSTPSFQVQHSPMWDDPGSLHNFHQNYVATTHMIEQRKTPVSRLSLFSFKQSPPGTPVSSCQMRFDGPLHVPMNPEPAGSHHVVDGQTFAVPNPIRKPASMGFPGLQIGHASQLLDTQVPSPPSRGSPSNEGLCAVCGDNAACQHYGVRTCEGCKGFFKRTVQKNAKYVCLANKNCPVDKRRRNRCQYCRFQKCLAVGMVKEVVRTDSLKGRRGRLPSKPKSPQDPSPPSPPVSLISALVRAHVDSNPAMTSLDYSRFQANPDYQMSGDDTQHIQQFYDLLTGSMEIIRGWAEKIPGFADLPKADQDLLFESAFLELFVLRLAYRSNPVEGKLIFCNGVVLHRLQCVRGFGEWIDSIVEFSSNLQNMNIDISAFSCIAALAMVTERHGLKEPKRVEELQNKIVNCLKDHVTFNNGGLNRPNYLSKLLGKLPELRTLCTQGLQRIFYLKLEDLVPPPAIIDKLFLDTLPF
METHOD_DESCRIPTION: In vitro activity on N2A cells (8NBRE-luciferase reporter)
Assay type: cell-based
CONDITION_NOTES: N2A cells endogenously expressing Nurr1, stably transfected with 8NBRE-luciferase; 24 hours incubation
pEC50: −log10 of the molar value.
PARAMETER_MEASURED: pEC50

• NC(=O)c1cccc(-c2ccn3nc(-c4ccc(Cl)cc4)cc3c2)c1 [Compound 2] = 7.35

(P) CNC(=O)c1cccc(-c2ccn3nc(-c4ccc(Cl)cc4)cc3c2)c1 [Compound 4]
(Q) CNC(=O)c1cccc(-c2ccn3nc(-c4ccc(F)cc4)cc3c2)c1C [Compound 10]
// task: argmin of pEC50 over [ P , Q ] # answer = label of selected item Q

(1) CNC(=O)c1ccc(-c2ccn3nc(-c4ccc(F)cc4)cc3c2)cc1F [Compound 14]
(2) CNC(=O)c1cccc(-c2ccn3nc(-c4cc(F)cc(F)c4)cc3c2)c1 [Compound 26]
For the pair 1 and 2 , which entry has the numerically smaller recorded pEC50? // caller expects the label of the chosen entry 1
(1: 6.90, 2: 8.89)

These data points were gathered from patent US8680096B2.
